Test system: 596521-263-R-J1-PDC complex spheroids, viability % of control
Test: Anticancer human tumor 596521-263-R-J1-PDC patient-derived soft tissue sarcoma cell line growth inhibition [GQUAD]
Conditions: second compound 3.16 µM; first compound 3.16 µM; active compounds read low
Excerpt: DNA G-quadruplex Stabilizer Agents in Combinations in Complex Spheroids A high-throughput screen of multi-cell type tumor spheroids was designed to identify active combinations of DNA G-quadruplex stabilizer agents and targeted small molecules. […] Compounds. […] If the clinical Cmax for an agent had not been determined, the highest concentration tested was 10 microM. […]

compound	viability, T/C / %
O=c1[nH]cc(F)c(=O)[nH]1 + Cc1[nH]c2ccc(F)cc2c1-c1nc2c3cccnc3c3ncccc3c2[nH]1	89.1
COc1ncnc(C2CC2)c1-c1ncc2cnn(Cc3ccc(-c4nc(C(F)(F)F)cn4C(C)C)cc3)c2n1 + CN(C)c1ccc(Nc2c3ccc(NC(=O)CCN4CCCC4)cc3nc3cc(NC(=O)CCN4CCCC4)ccc23)cc1	86.6
C=CC(=O)N1CCN(c2nc(=O)n(-c3c(C)ccnc3C(C)C)c3nc(-c4c(O)cccc4F)c(F)cc23)C(C)C1 (stereo not given) + CN(C)c1ccc(Nc2c3ccc(NC(=O)CCN4CCCC4)cc3nc3cc(NC(=O)CCN4CCCC4)ccc23)cc1	111
COc1ccc([C@@H](O)c2cc(-c3ncnc4cc(N5CCOCC5)ccc34)c(F)cc2Cl)nn1 + Cc1cnc(CNC(=O)c2c(=O)c3ccc(N4CCCN(C)CC4)nc3n3c2sc2ccccc23)cn1	40.3
O=C(NO)c1cnc(N2CCN(S(=O)(=O)c3ccc4ccccc4c3)CC2)nc1 + CN(C)c1ccc(Nc2c3ccc(NC(=O)CCN4CCCC4)cc3nc3cc(NC(=O)CCN4CCCC4)ccc23)cc1	0.37
CC(=O)O[C@H]1C(=O)[C@@]2(C)[C@H]([C@H](OC(=O)c3ccccc3)[C@]3(O)C[C@H](OC(=O)[C@H](O)[C@@H](NC(=O)c4ccccc4)c4ccccc4)C(C)=C1C3(C)C)[C@]1(OC(C)=O)CO[C@@H]1C[C@@H]2O + Cc1cnc(CNC(=O)c2c(=O)c3ccc(N4CCCN(C)CC4)nc3n3c2sc2ccccc23)cn1	27.6
CCCS(=O)(=O)Nc1ccc(F)c(C(=O)c2c[nH]c3ncc(-c4ccc(Cl)cc4)cc23)c1F + Cc1cnc(CNC(=O)c2c(=O)c3ccc(N4CCCN(C)CC4)nc3n3c2sc2ccccc23)cn1	55.2
COc1ccc([C@@H](O)c2cc(-c3ncnc4cc(N5CCOCC5)ccc34)c(F)cc2Cl)nn1 + CN(C)c1ccc(Nc2c3ccc(NC(=O)CCN4CCCC4)cc3nc3cc(NC(=O)CCN4CCCC4)ccc23)cc1	64.1
COc1cccc2c1C(=O)c1c(O)c3c(c(O)c1C2=O)CC(O)(C(=O)CO)CC3OC1CC(N)C(O)C(C)O1 (stereo not given) + CN(C)c1ccc(Nc2c3ccc(NC(=O)CCN4CCCC4)cc3nc3cc(NC(=O)CCN4CCCC4)ccc23)cc1	30.3
CCCS(=O)(=O)Nc1ccc(F)c(C(=O)c2c[nH]c3ncc(-c4ccc(Cl)cc4)cc23)c1F + Cc1[nH]c2ccc(F)cc2c1-c1nc2c3cccnc3c3ncccc3c2[nH]1	37.9

----------
system: 596521-263-R-J1-PDC complex spheroids, viability % of control; experiment: Anticancer human tumor 596521-263-R-J1-PDC cell line growth inhibition [GQUAD]; details: second compound 1 µM; first compound 1 µM; active compounds read low;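 also: spheroids exposed to drugs for 7 days before viability reading; 100% = DMSO vehicle control viability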
Items are presented alongside their recorded viability, T/C.

molecule	viability, T/C [%]
CC(=O)O[C@H]1C(=O)[C@@]2(C)[C@H]([C@H](OC(=O)c3ccccc3)[C@]3(O)C[C@H](OC(=O)[C@H](O)[C@@H](NC(=O)c4ccccc4)c4ccccc4)C(C)=C1C3(C)C)[C@]1(OC(C)=O)CO[C@@H]1C[C@@H]2O + Cc1cnc(CNC(=O)c2c(=O)c3ccc(N4CCCN(C)CC4)nc3n3c2sc2ccccc23)cn1	27.9
C=CCn1c(=O)c2cnc(Nc3ccc(N4CCN(C)CC4)cc3)nc2n1-c1cccc(C(C)(C)O)n1 + Cc1cnc(CNC(=O)c2c(=O)c3ccc(N4CCCN(C)CC4)nc3n3c2sc2ccccc23)cn1	41.9
